# Test system: mAb 6F9
# procedure details: TCPN EIA, reactivity profile with monoclonal antibody
# Assay type: binding, mouse
# experimental context: relative to TCPN

{"molecule": "N#Cc1c(O)c(Cl)c(Cl)c(C#N)c1Cl [4-hydroxyTCPN]", "% Cross Reactivity (%)": 28}
{"molecule": "N#Cc1c(Cl)c(O)c(Cl)c(C#N)c1Cl [5-hydroxyTCPN]", "% Cross Reactivity (%)": 31}
{"molecule": "N#Cc1c(Cl)c(N)c(Cl)c(C#N)c1Cl", "% Cross Reactivity (%)": 116}
{"molecule": "N#Cc1c(Cl)c(Cl)c(Cl)c(C(N)=O)c1Cl [amide TCPN, 2,4,5,6-tetrachloro-3-cyanobenzamide]", "% Cross Reactivity (%)": 2.8}

----------
# Tested on: mAb 6F9
# procedure details: TCPN EIA, reactivity profile with monoclonal antibody
# Format: binding, mouse
# experimental context: relative to TCPN
// values below are reported % Cross Reactivity

{"molecule": "COC(=O)Nc1nc2ccccc2[nH]1 [MBC, carbendazim]", "experimental target": "mAb 6F9", "% Cross Reactivity": "< 0.01%"}
{"molecule": "N#Cc1c(N)c(Cl)c(Cl)c(C#N)c1Cl [4-aminoTCPN, 4-amino-2,5,6-trichloroisophthalonitrile]", "experimental target": "mAb 6F9", "% Cross Reactivity": "92%"}
{"molecule": "CCCN(CCC)c1c([N+](=O)[O-])cc(C(F)(F)F)cc1[N+](=O)[O-] [Trifluralin]", "experimental target": "mAb 6F9", "% Cross Reactivity": "< 0.01%"}
{"molecule": "NC(=O)c1c(Cl)c(Cl)cc(C(=O)O)c1Cl [acid/amide TCPN, 3-carbamyl-2,4,5-trichlorobenzoic acid]", "experimental target": "mAb 6F9", "% Cross Reactivity": "< 0.01%"}
{"molecule": "CCc1cccc(CC)c1N(COC)C(=O)CCl [Alachlor]", "experimental target": "mAb 6F9", "% Cross Reactivity": "< 0.01%"}
{"molecule": "N#Cc1c(S)c(Cl)c(Cl)c(C#N)c1Cl [4-mercaptoTCPN]", "experimental target": "mAb 6F9", "% Cross Reactivity": "46%"}
{"molecule": "CCCCNC(=O)n1c(NC(=O)OC)nc2ccccc21 [Benomyl]", "experimental target": "mAb 6F9", "% Cross Reactivity": "< 0.01%"}
{"molecule": "N#Cc1c(Cl)c(Cl)c(Cl)c(C#N)c1Cl [TCPN, tetrachloroisophthalonitrile]", "experimental target": "mAb 6F9", "% Cross Reactivity": "100%"}
{"molecule": "N#Cc1c(Cl)c(Cl)c(Cl)c(Cl)c1Cl [PCBN, pentachlorobenzonitrile]", "experimental target": "mAb 6F9", "% Cross Reactivity": "7.3%"}
{"molecule": "Clc1c(Cl)c(Cl)c(Cl)c(Cl)c1Cl [HCB, hexachlorobenzene]", "experimental target": "mAb 6F9", "% Cross Reactivity": "< 0.01%"}
{"molecule": "CCNc1nc(Cl)nc(NC(C)C)n1 [Atrazine]", "experimental target": "mAb 6F9", "% Cross Reactivity": "< 0.01%"}
{"molecule": "CCc1cccc(C)c1N(C(=O)CCl)C(C)COC (stereo not drawn) [Metolachlor]", "experimental target": "mAb 6F9", "% Cross Reactivity": "< 0.01%"}

----------
# System: polyclonal anti-TCPN antibody
# procedure details: TCPN EIA, reactivity profile with polyclonal antibody
# Assay type: binding
# experimental context: 10 min
Listed here: items and their measured log10 IC50.
metric: log10 IC50 (log10 of the value in ppb)

{"compound": "N#Cc1c(Cl)c(Cl)c(Cl)c(C(N)=O)c1Cl [amide TCPN, 2,4,5,6-tetrachloro-3-cyanobenzamide]", "log10 IC50": 2.85}
{"compound": "N#Cc1c(Cl)c(N)c(Cl)c(C#N)c1Cl", "log10 IC50": 1.63}
{"compound": "N#Cc1c(Cl)c(O)c(Cl)c(C#N)c1Cl [5-hydroxyTCPN]", "log10 IC50": 2.90}
{"compound": "N#Cc1c(Cl)c(Cl)c(Cl)c(C#N)c1Cl", "log10 IC50": 0.70}
{"compound": "N#Cc1c(O)c(Cl)c(Cl)c(C#N)c1Cl [4-hydroxyTCPN]", "log10 IC50": 3.00}
{"compound": "N#Cc1c(Cl)c(Cl)c(Cl)c(Cl)c1Cl", "log10 IC50": 1.78}
{"compound": "N#Cc1c(S)c(Cl)c(Cl)c(C#N)c1Cl", "log10 IC50": 1.00}
{"compound": "N#Cc1c(N)c(Cl)c(Cl)c(C#N)c1Cl", "log10 IC50": 1.63}
